- Experimental details: Selectivity index, ratio of IC50 for CHO cells to IC50 for antileishmanial activity against Leishmania donovani 9515 by resazurin dye based assay
- Type: toxicity
- Condition label: hamster, read-out: Ratio IC50
Item-by-item account of selectivity ratio
Readout label: selectivity ratio

1) COc1ccc2nc3cc(Cl)ccc3c(N3CCNC(C)C3)c2c1 (centres undefined): 1.4
2) C[C@H]1[C@@H](O)O[C@@H]2O[C@@]3(C)CC[C@H]4[C@H](C)CC[C@@H]1[C@@]24OO3: 4
3) CCCC(=O)OCC1(C)O[C@@H]2O[C@@]3(C)CC[C@H]4[C@H](C)CC[C@@H]1[C@@]24OO3 (some centres undefined): 8
4) C[C@@H]1CC[C@H]2C(C)(COC(=O)c3cccs3)O[C@@H]3O[C@@]4(C)CC[C@@H]1[C@]32OO4 (some centres undefined): 9

###

- Tested on: Leishmania major
- Experimental details: Antileishmanial activity against Leishmania major IR-173 promastigotes assessed as inhibition of parasite growth incubated for 72 hrs by resazurin dye based assay
- Assay type: functional, organism-based
- Condition label: IR-173, 72 h
Binarize IC50 at 10 µM; below is condition met, at or above is condition not met.

1. COc1ccc2nc3cc(Cl)ccc3c(NCCN)c2c1: condition met
2. C[C@H]1[C@H](OC(=O)CCC(=O)O)O[C@@H]2O[C@@]3(C)CC[C@H]4[C@H](C)CC[C@@H]1[C@@]24OO3 [SODIUM ARESUNATE]: condition not met
3. C[C@@H]1CC[C@H]2C(C)(CO)O[C@@H]3O[C@@]4(C)CC[C@@H]1[C@]32OO4 (some centres not stated): condition not met
4. C[C@@H]1CC[C@H]2C(C)(COC(=O)c3cc4ccccc4o3)O[C@@H]3O[C@@]4(C)CC[C@@H]1[C@]32OO4 (some centres not stated): condition not met
5. C[C@H]1[C@@H](O)O[C@@H]2O[C@@]3(C)CC[C@H]4[C@H](C)CC[C@@H]1[C@@]24OO3 [ARTENIMOL]: condition not met
6. COc1ccc2nc3cc(Cl)ccc3c(N3CCNCC3)c2c1: condition met
7. COc1ccc2nc3cc(Cl)ccc3c(N3CCN(CCO[C@H]4O[C@@H]5O[C@@]6(C)CC[C@H]7[C@H](C)CC[C@@H]([C@H]4C)[C@@]57OO6)CC3)c2c1: condition met

###

- Experimental details: Selectivity index, ratio of IC50 for CHO cells to IC50 for antileishmanial activity against Leishmania donovani 1S by resazurin dye based assay
- Type: toxicity
- Condition label: hamster, read-out: Ratio IC50
Binarize selectivity ratio at 3; below is condition met, at or above is condition not met.

1) C[C@H]1[C@H](OC(=O)CCC(=O)O)O[C@@H]2O[C@@]3(C)CC[C@H]4[C@H](C)CC[C@@H]1[C@@]24OO3 [SODIUM ARESUNATE]: condition met
2) CCCCCC(=O)OCC1(C)O[C@@H]2O[C@@]3(C)CC[C@H]4[C@H](C)CC[C@@H]1[C@@]24OO3 (stereo not given in full): condition not met
3) C[C@@H]1CC[C@H]2C(C)(COC(=O)CCc3ccccc3)O[C@@H]3O[C@@]4(C)CC[C@@H]1[C@]32OO4 (stereo not given in full): condition not met
4) COc1ccc2nc3cc(Cl)ccc3c(NCCCN(C)CCO[C@H]3O[C@@H]4O[C@@]5(C)CC[C@H]6[C@H](C)CC[C@@H]([C@H]3C)[C@@]46OO5)c2c1: condition not met
5) CO[C@H]1O[C@@H]2O[C@@]3(C)CC[C@H]4[C@H](C)CC[C@@H]([C@H]1C)[C@@]24OO3: condition met
6) COc1ccc2nc3cc(Cl)ccc3c(NCCN)c2c1: condition met
7) C[C@@H]1CC[C@H]2C(C)(COC(=O)c3ccc(-c4ccccc4)cc3)O[C@@H]3O[C@@]4(C)CC[C@@H]1[C@]32OO4 (stereo not given in full): condition not met
8) COc1ccc2nc3cc(Cl)ccc3c(N3CCNCC3)c2c1: condition met
9) C[C@@H]1CC[C@H]2C(C)(COC(=O)c3ccc(F)cc3)O[C@@H]3O[C@@]4(C)CC[C@@H]1[C@]32OO4 (stereo not given in full): condition not met
10) C[C@@H]1CC[C@H]2C(C)(C=O)O[C@@H]3O[C@@]4(C)CC[C@@H]1[C@]32OO4 (stereo not given in full): condition not met
11) COc1ccc2nc3cc(Cl)ccc3c(NCCNCCO[C@H]3O[C@@H]4O[C@@]5(C)CC[C@H]6[C@H](C)CC[C@@H]([C@H]3C)[C@@]46OO5)c2c1: condition not met
12) C[C@@H]1CC[C@H]2C(C)(COC(=O)c3cc4ccccc4o3)O[C@@H]3O[C@@]4(C)CC[C@@H]1[C@]32OO4 (stereo not given in full): condition not met
13) COc1ccc2nc3cc(Cl)ccc3c(N3CCNC(C)C3)c2c1 (stereo not given): condition met

###

Item-by-item account of pIC50
- Test system: Leishmania major
- Experimental details: Antileishmanial activity against Leishmania major IR-173 promastigotes assessed as inhibition of parasite growth incubated for 72 hrs by resazurin dye based assay
- Format: functional, organism-based
- Condition label: IR-173, 72 h
pIC50: −log10 of the molar value.
Readout label: pIC50

1) C[C@@H]1CC[C@H]2C(C)(COC(=O)c3ccc(-c4ccccc4)cc3)O[C@@H]3O[C@@]4(C)CC[C@@H]1[C@]32OO4 (some centres undefined): 5.01
2) C[C@@H]1CC[C@H]2C(C)(COC(=O)c3cccs3)O[C@@H]3O[C@@]4(C)CC[C@@H]1[C@]32OO4 (some centres undefined): 5.00
3) CC(=O)OCC1(C)O[C@@H]2O[C@@]3(C)CC[C@H]4[C@H](C)CC[C@@H]1[C@@]24OO3 (some centres undefined): 4.38
4) COc1ccc2nc3cc(Cl)ccc3c(NCCCN(C)CCO[C@H]3O[C@@H]4O[C@@]5(C)CC[C@H]6[C@H](C)CC[C@@H]([C@H]3C)[C@@]46OO5)c2c1: 6.64

###

- Test system: Leishmania major
- Experimental details: Antileishmanial activity against Leishmania major IR-173 promastigotes assessed as inhibition of parasite growth incubated for 72 hrs by resazurin dye based assay
- Format: functional, organism-based
- Condition label: IR-173, 72 h
pIC50: −log10 of the molar value.
Readout label: pIC50

1. CNCCCNc1c2ccc(Cl)cc2nc2ccc(OC)cc12: 5.84
2. Cc1csc(C(=O)OCC2(C)O[C@@H]3O[C@@]4(C)CC[C@H]5[C@H](C)CC[C@@H]2[C@@]35OO4)c1 (some centres undefined): 5.37
3. C[C@@H]1CC[C@H]2C(C)(COC(=O)[C@H]3CCCN3C(=O)C(F)(F)F)O[C@@H]3O[C@@]4(C)CC[C@@H]1[C@]32OO4 (some centres undefined): 4.81
4. COc1ccc2nc3cc(Cl)ccc3c(N3CCNC(C)C3)c2c1 (centres undefined): 5.46

###

- Experimental details: in vitro
- Condition label: hamster, CHO cells
Readout label: selectivity ratio

1) C[C@@H]1CC[C@H]2C(C)(C=O)O[C@@H]3O[C@@]4(C)CC[C@@H]1[C@]32OO4 (some centres undefined): 4
2) CCCC(=O)OCC1(C)O[C@@H]2O[C@@]3(C)CC[C@H]4[C@H](C)CC[C@@H]1[C@@]24OO3 (some centres undefined): 8
3) C[C@@H]1CC[C@H]2C(C)(COC(=O)c3cccs3)O[C@@H]3O[C@@]4(C)CC[C@@H]1[C@]32OO4 (some centres undefined): 10
4) C[C@@H]1CC[C@H]2C(C)(COC(=O)c3cc4ccccc4o3)O[C@@H]3O[C@@]4(C)CC[C@@H]1[C@]32OO4 (some centres undefined): 9

###

- Experimental details: Selectivity index, ratio of IC50 for CHO cells to IC50 for antileishmanial activity against Leishmania donovani 1S by resazurin dye based assay
- Type: toxicity
- Condition label: hamster, read-out: Ratio IC50
Readout label: selectivity ratio

1. CCCC(=O)OCC1(C)O[C@@H]2O[C@@]3(C)CC[C@H]4[C@H](C)CC[C@@H]1[C@@]24OO3 (stereo partly specified): > 2
2. C[C@@H]1CC[C@H]2C(C)(COC(=O)c3ccc([N+](=O)[O-])cc3)O[C@@H]3O[C@@]4(C)CC[C@@H]1[C@]32OO4 (stereo partly specified): > 24
3. COc1ccc2nc3cc(Cl)ccc3c(N3CCN(CCO[C@H]4O[C@@H]5O[C@@]6(C)CC[C@H]7[C@H](C)CC[C@@H]([C@H]4C)[C@@]57OO6)C(C)C3)c2c1 (stereo partly specified): 4
4. COc1ccc2nc3cc(Cl)ccc3c(N3CCN(CCO[C@H]4O[C@@H]5O[C@@]6(C)CC[C@H]7[C@H](C)CC[C@@H]([C@H]4C)[C@@]57OO6)CC3)c2c1: 5
5. CNCCCNc1c2ccc(Cl)cc2nc2ccc(OC)cc12: 0.2
6. Cc1csc(C(=O)OCC2(C)O[C@@H]3O[C@@]4(C)CC[C@H]5[C@H](C)CC[C@@H]2[C@@]35OO4)c1 (stereo partly specified): > 15

The values you see were collected from ChEMBL document CHEMBL4699524.
